Taken from PubChem BioAssay.

Experiment: COS7 lysate on small-molecule microarray, probe aHis, 635 nm (AID 1123);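 note: z-score combines 667nm fluorescence intensity with signal-to-noise per printed compound spot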
Conditions: COS7 cell lysate, fluorescence, higher = more signal
# composite z-score binned as low class: < 1; middle class: ≥ 1 and < 2; high class: ≥ 2

# Molecule, Answer label
data = [
    ("C=CCNC(=O)[C@H]1[C@@H]2C(=O)O[C@@H](c3ccccc3)[C@@H](c3ccccc3)N2[C@@H](c2ccccc2OCCO)[C@]12C(=O)N(C(=O)OCCOC)c1ccc(C#CC3(O)CCCCCC3)cc12", "middle class"),
    ("COc1ccc(CCNC(=O)[C@@H]2c3ccccc3C(=O)N(C3CCCCC3)[C@H]2c2ccc(CO)cc2)cc1", "high class"),
    ("C=CCNC(=O)[C@@H]1[C@H]2C(=O)O[C@H](c3ccccc3)[C@H](c3ccccc3)N2[C@H](c2ccccc2OCCO)[C@@]12C(=O)N(C(=O)OCCOC)c1ccc(C#CC3(O)CCCCCC3)cc12", "high class"),
    ("NC(=O)NCC#Cc1ccc2c(c1)[C@]1(C(=O)N2)[C@H](C(=O)N2CCN(c3ncccn3)CC2)[C@H]2C(=O)O[C@H](c3ccccc3)[C@H](c3ccccc3)N2[C@@H]1c1ccc(O)cc1", "low class"),
    ("COc1cc2c(cc1O)C(C1CC1)N(Cc1cccc(OC(F)(F)F)c1)CC2 (stereo not given)", "middle class"),
]

Input: Hello team, could you let me know which band the following molecule falls into: CCCC[C@@H]1C[C@H]1[C@@H](NC(=O)c1cccs1)c1ccccc1C(F)(F)F
Output: high class

Input: Hello team, could you let me know which band the following molecule falls into: CC(C)[Si](C#CCCCC#N)(O[C@H](c1ccccc1)c1cn(Cc2ccccc2)nn1)C(C)C
Output: low class

###

System: Plasmodium falciparum Sir2 (PF13_0152, Sir2A)
Experiment: Plasmodium falciparum Sir2A binding compounds – biochemical, small-molecule microarray, 635 nm fluorescence, primary screen (AID 1098);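 note: score merges spot fluorescence intensity with its signal-to-noise ratio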
Conditions: fluorescence 635 nm, higher = more signal
I would appreciate it if you labelled entries 1 (yes) when composite z-score is 1 or higher, otherwise 0 (no).

Worked cases, answers included:
# Item smiles, Answer label
data = [
    ("[N-]=[N+]=Nc1ccccc1[C@H]1OC(c2ccc(OCCCO)cc2)=N[C@@]1(Cc1ccccc1)C(=O)NCCN1CCOCC1", "1 (yes)"),
    ("CC(C)(C)OC(=O)COc1cccc(C(=O)CCN2CCOCC2)c1", "0 (no)"),
    ("COc1ccc([Si](C)(C)[C@@H]2[C@@H](CCO)O[C@]3(C(=O)N(Cc4ccccc4)c4ccc(N5C(=O)c6cccc7cccc5c67)cc43)[C@H]2C)cc1", "1 (yes)"),
    ("O=C1O[C@@H](c2ccccc2)[C@@H](c2ccccc2)N2[C@@H](c3ccc(O)cc3)[C@]3(C(=O)Nc4ccc(C#CCCO)cc43)[C@@H](C(=O)N3CCN(c4ncccn4)CC3)[C@H]12", "1 (yes)"),
    ("CC1=C2[C@@H](CCc3ccccc3)OB(O)C[C@@H]2[C@@H]2C(=O)N(Cc3ccccc3)C(=O)[C@@H]2C1", "0 (no)"),
    ("NCCCCCCNC(=O)[C@@H]1C[C@@H]2C(=O)N[C@@H](CCCCN)C(=O)N2[C@@H]1c1ccc(O)cc1", "1 (yes)"),
]

Now look at this one.
Input: State whether the measured composite z-score reaches 1, counting equality as reaching it, for CC(C)=C1C(=O)C(c2ccccc2)=C2CN3C(=O)N(CCc4ccccc4)C(=O)[C@]3(Cc3ccc(C(F)(F)F)cc3)[C@H]21
Output: 1 (yes)

###

Tested on: wheat germ agglutinin (Triticum aestivum), Alexa647-labelled
Assay: Alexa647-WGA lectin binding to printed small molecules – biochemical, small-molecule microarray, 635/667 nm fluorescence, artefact control for SMM control-protein annotation, profiling panel (AID 1140);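 note: score merges 667 nm feature emission with signal to noise over triplicate slides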
Conditions: WGA-A647 binding, 635 nm fluorescence, higher = more signal
Examples of compounds with documented composite z-score follow.
Enter a number only.

# Compound, Assay value
measured = [
    ("CC(C)NC(=O)[C@@]1(c2ccc([N+](=O)[O-])cc2)CC(=O)N(C2CCCCC2)[C@@H]1c1ccc(CO)cc1", 0.965),
    ("[N-]=[N+]=NCc1ccccc1[C@@H]1OC(c2ccc(OCCCO)cc2)=N[C@]1(CCS(=O)(=O)c1ccccc1)C(=O)O", 1.17),
]

Input: So what does the record say about composite z-score for CCOC(=O)C1=CC[C@@H](c2ccccc2)N(S(=O)(=O)c2ccc(C)cc2)[C@H]1c1ccccc1 ?
Output: 0.991

Input: So what does the record say about composite z-score for O=C(C1N=C(c2ccc(OCCCO)cc2)N(c2ccccc2)O1)N1CCCCC1 (centres undefined) ?
Output: 1.31

###

Experiment: compounds binding Alexa647 anti-His antibody – biochemical, small-molecule microarray, 635 nm fluorescence, artefact control for SMM control protein annotation, primary screen (AID 1128);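 note: score merges feature fluorescence with signal-to-noise for each printed compound spot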
Settings: higher = more signal
I would appreciate it if you labelled entries rule met when composite z-score is 0.06 or higher, otherwise rule not met.

# Compound, Answer label
rows = [
    ("C=CC[C@@H](OC(=O)Nc1ccc(OC)cc1)c1ccc(O)c(F)c1", "rule not met"),
    ("[N-]=[N+]=NCc1ccccc1[C@@H]1OC(c2ccc(OCCCO)cc2)=N[C@]1(CCS(=O)(=O)c1ccccc1)C(=O)O", "rule met"),
    ("CC(C)[Si]1(C(C)C)OCc2cc(C3CC3)nc(-c3ccc(Oc4ccccc4)cc3)c21", "rule not met"),
    ("CC(C)[Si]1(C(C)C)OCc2cc(-c3ccc(-c4ccc(Cl)c(Cl)c4)o3)nc(-c3ccccc3)c21", "rule not met"),
    ("C=CCNC(=O)[C@@H]1[C@H]2C(=O)O[C@H](c3ccccc3)[C@H](c3ccccc3)N2[C@H](c2ccc(O)cc2)[C@@]12C(=O)N(C(=O)OCCOC)c1ccc(C#CC3=CCCCC3)cc12", "rule met"),
]

Input: State whether the measured composite z-score reaches 0.06, counting equality as reaching it, for O=C1N(CCS(=O)(=O)c2ccccc2)c2ccccc2[C@H]2OC(c3ccc(OCCCO)cc3)=N[C@@]12Cc1ccccc1
Output: rule met

Input: State whether the measured composite z-score reaches 0.06, counting equality as reaching it, for CN(C)C(=O)[C@]1(CCC(=O)OC(C)(C)C)N=C(c2ccc(OCCCO)cc2)O[C@@H]1c1ccccc1CN=[N+]=[N-]
Output: rule met

Input: State whether the measured composite z-score reaches 0.06, counting equality as reaching it, for COc1ccc([Si](C)(C)[C@H]2[C@H](CC(=O)N3Cc4ccccc4C[C@H]3CO)O[C@@]3(C(=O)N(Cc4ccc(N5CCOC5=O)cc4)c4ccccc43)[C@@H]2C)cc1
Output: rule met

Input: State whether the measured composite z-score reaches 0.06, counting equality as reaching it, for Cc1ccc(S[C@]2(C(=O)NCCN3CCOCC3)CC(=O)N(Cc3ccccc3Cl)[C@@H]2c2ccc(CO)cc2I)cc1
Output: rule not met

Input: State whether the measured composite z-score reaches 0.06, counting equality as reaching it, for COc1cc2c(cc1O)C(c1cccs1)N(Cc1cc3c(cc1Br)OCO3)CC2 (stereo not given)
Output: rule met

Input: State whether the measured composite z-score reaches 0.06, counting equality as reaching it, for [N-]=[N+]=Nc1ccccc1[C@H]1OC(c2ccc(OCCCO)cc2)=N[C@@]1(Cc1ccccc1)C(=O)NCCN1CCOCC1
Output: rule met

Input: State whether the measured composite z-score reaches 0.06, counting equality as reaching it, for Cc1ccc(S[C@]2(C(=O)NCC(F)(F)F)CC(=O)N(Cc3cc(C(F)(F)F)cc(C(F)(F)F)c3)[C@@H]2c2ccc(CO)cc2I)cc1
Output: rule met

Input: State whether the measured composite z-score reaches 0.06, counting equality as reaching it, for COc1ccc(C#Cc2ccc3c(c2)[C@]2(C(=O)N3)[C@H](c3ccc(O)cc3)N3[C@H](c4ccccc4)[C@H](c4ccccc4)OC(=O)[C@H]3[C@@H]2C(=O)Nc2nc3ccccc3s2)cc1
Output: rule met

Input: State whether the measured composite z-score reaches 0.06, counting equality as reaching it, for CCOC(=O)[C@@H]1CCCCN1C(=O)C(=O)OC
Output: rule met

Input: State whether the measured composite z-score reaches 0.06, counting equality as reaching it, for COc1cc2c(cc1O)C(C1CC1)N(C)CC2 (stereo not given)
Output: rule not met

###

Assay: plasmodial surface anion channel blockers, osmotic lysis – cell-based, P. falciparum Indochina, OD700, 2 h, primary screen (AID 1155);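 note: lysis reports solute entry through the parasite surface anion channel PSAC; channel blockers reduce lysis of infected cells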
Conditions: P. falciparum Indochina infected erythrocytes, higher = more signal, called active from +8 up or from −8 down
Measured parameter: z-score
Enter a number only.

Worked cases, answers included:
# Molecule, Assay value
measured = [
    ("CCCC[C@@H](O)C1=C(COC)C[C@H]2C(=O)N(Cc3ccccc3)C(=O)[C@H]2[C@H]1CO", -0.384),
    ("CC(CO)N1C(=O)[C@@H]2[C@H]3C(=O)OCC=C[C@H]3OC23C=CCN(Cn2nnc4ccccc42)C(=O)[C@@H]13 (stereo partly specified)", 0.359),
    ("CO[C@H]1O[C@H](CO)[C@@H](OC(=O)Nc2ccc3c(c2)OCO3)[C@H](OC(=O)Nc2ccc3c(c2)OCO3)[C@@H]1OC(=O)Nc1ccc2c(c1)OCO2", 1.62),
]

Input: So what does the record say about z-score for O=C1O[C@H](c2ccccc2)[C@H](c2ccccc2)N2[C@H]1[C@@H](C(=O)O)[C@]1(C(=O)Nc3ccc(C#CCCO)cc31)[C@H]2c1ccccc1OCCO ?
Output: -0.353

Input: So what does the record say about z-score for Cc1ccc(N2C(=O)c3ccccc3[C@@H](C(=O)NCCCN(C)C)[C@@H]2c2ccc(CO)cc2)nc1 ?
Output: 0.392

Input: So what does the record say about z-score for C=C[C@@H](CO)N(Cc1ccc(OC)cc1)S(=O)(=O)c1ccc(Br)cc1 ?
Output: -0.457

Input: So what does the record say about z-score for Cc1ccc(S[C@]2(C(=O)NCC(F)(F)F)CC(=O)N(Cc3cc(C(F)(F)F)cc(C(F)(F)F)c3)[C@@H]2c2ccc(CO)cc2)cc1 ?
Output: 0.594

Input: So what does the record say about z-score for CC(C)C(O)C1C=CC2C(=O)N(c3ccccc3)C(=O)C2N1Nc1ccccc1 (stereo unspecified) ?
Output: -0.4
